Hello, the source for this data is ChEMBL document CHEMBL2401653, in case you need it.

assay: 1-octanol-phosphate buffer distribution coefficient, log D of the compound at pH 7.4 after 2 days by shake flask method; type: physicochemical
endpoint-name: logD at 48 h
Keep the answer to the number alone.

Worked set:
[
  {
    "smiles-structure": "CC(C)OC(=O)c1cnc(N2CCN(C(=O)NS(=O)(=O)c3ccc(Cl)s3)CC2)c(Cl)c1",
    "numeric-value": 1.5
  },
  {
    "smiles-structure": "CC(C)CCOC(=O)c1cnc(N2CCN(C(=O)NS(=O)(=O)c3ccc(Cl)s3)CC2)c(Cl)c1",
    "numeric-value": 2.7
  },
  {
    "smiles-structure": "CCOC(=O)c1cc(C#N)c(N2CC(NC(=O)NS(=O)(=O)Cc3ccccc3)C2)nc1C",
    "numeric-value": 1.1
  },
  {
    "smiles-structure": "CCOC(=O)c1cc(C#N)c(N2CCN(C(=O)NCc3ccc(F)cc3)CC2)nc1C(F)(F)F",
    "numeric-value": 5
  },
  {
    "smiles-structure": "CCOC(=O)c1cc(C#N)c(N2CCN(C(=O)NS(=O)(=O)c3ccc(Cl)s3)CC2)nc1C(F)(F)F",
    "numeric-value": 1.1
  },
  {
    "smiles-structure": "CCOC(=O)c1ccc(N2CCN(C(=O)NS(=O)(=O)c3ccc(Cl)s3)CC2)c(Cl)c1",
    "numeric-value": 1.5
  }
]

get_value(item= CCOC(=O)c1cc(C#N)c(N2CCCN(C(=O)NS(=O)(=O)c3ccc(Cl)s3)CC2)nc1C , readout=logD at 48 h) returns 0.9

get_value(item= CCOC(=O)c1cc(C#N)c(N2CCN(C(=O)Nc3ccccc3)CC2)nc1C(F)(F)F , readout=logD at 48 h) returns 5

get_value(item= CCOC(=O)c1cc(C#N)c(N2CC(NC(=O)NS(=O)(=O)c3ccc(Cl)cc3)C2)nc1C , readout=logD at 48 h) returns 1.1

----------
assay: Half life in iv dosed rat; assay type: ADME, organism-based; conditions: in vivo
endpoint-name: half-life (min)
Answer with a number only, understood to be in min.

Worked set:
[
  {
    "molecule": "CCOC(=O)c1cc(C#N)c(N2CC(NC(=O)NS(=O)(=O)Cc3ccccc3)C2)nc1C",
    "units-label": "min",
    "half-life": 33
  },
  {
    "molecule": "CCOC(=O)c1cc(C#N)c(N2CCN(C(=O)NS(=O)(=O)c3ccc(Cl)s3)C(CCC(=O)O)C2)nc1C(F)(F)F (racemic)",
    "units-label": "min",
    "half-life": 37.2
  },
  {
    "molecule": "CCOC(=O)c1cnc(N2CC(NC(=O)NS(=O)(=O)c3ccccc3)C2)c(Cl)c1",
    "units-label": "min",
    "half-life": 10.2
  }
]

get_value(item= CCOC(=O)c1cc(C#N)c(N2CCN(C(=O)NS(=O)(=O)c3ccc(C)cc3)CC2)nc1C(F)(F)F , readout=half-life) returns 90

get_value(item= CCOC(=O)c1cc(C#N)c(N2CC(NC(=O)NS(=O)(=O)c3ccccc3)C2)nc1C , readout=half-life) returns 102

get_value(item= CCOC(=O)c1cnc(N2CCN(C(=O)NS(=O)(=O)c3ccc(Cl)s3)CC2)c(Cl)c1 , readout=half-life) returns 55.2
